Here the recorded Selectivity v. Coll-3 is given for each entry.
Biological target: gelatinase B (UniProt P14780 107-707, limits assumed)
Sequence (P14780 107-707 limits assumed): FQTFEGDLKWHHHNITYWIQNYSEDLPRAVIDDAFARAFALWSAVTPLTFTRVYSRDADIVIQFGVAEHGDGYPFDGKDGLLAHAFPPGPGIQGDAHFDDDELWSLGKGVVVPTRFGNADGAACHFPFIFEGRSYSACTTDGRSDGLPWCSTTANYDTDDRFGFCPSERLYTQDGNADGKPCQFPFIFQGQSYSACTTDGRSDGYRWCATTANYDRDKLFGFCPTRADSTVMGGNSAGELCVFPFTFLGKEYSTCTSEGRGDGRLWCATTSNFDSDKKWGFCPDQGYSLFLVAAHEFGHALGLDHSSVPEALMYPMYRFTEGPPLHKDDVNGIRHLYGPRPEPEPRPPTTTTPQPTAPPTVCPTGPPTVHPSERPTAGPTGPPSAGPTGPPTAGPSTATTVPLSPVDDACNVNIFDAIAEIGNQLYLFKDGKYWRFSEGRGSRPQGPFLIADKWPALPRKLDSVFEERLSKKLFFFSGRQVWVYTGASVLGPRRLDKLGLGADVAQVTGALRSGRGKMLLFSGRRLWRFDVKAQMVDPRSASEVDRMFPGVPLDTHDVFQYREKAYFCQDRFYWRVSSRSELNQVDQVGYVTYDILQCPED
Test: cell-based or functional assay
*1 amine or outer side, *2 acyl side, *3 side chain or, on linkers, in order; H or OH if unused. [ ]: non-standard residue; d: D form. The star is where a group is joined. Dnp = O=[N+]([O-])c1ccc(*)c([N+](=O)[O-])c1; C(Me) = CSC[C@H](N[*:1])C(=O)[*:2]
Could you give me the number in unitless? Just the number is fine.

binder	Selectivity v. Coll-3 (unitless)
Dnp-GPINLHG-NH2 (SMILES CC[C@H](C)[C@H](NC(=O)[C@@H]1CCCN1C(=O)CNc1ccc([N+](=O)[O-])cc1[N+](=O)[O-])C(=O)N[C@@H](CC(N)=O)C(=O)N[C@@H](CC(C)C)C(=O)N[C@@H](Cc1c[nH]cn1)C(=O)NCC(N)=O) [Dnp-GPINLHG-NH2]	15
Dnp-GPLGLHG[C(Me)]-NH2 (SMILES CSC[C@H](NC(=O)CNC(=O)[C@H](Cc1c[nH]cn1)NC(=O)[C@H](CC(C)C)NC(=O)CNC(=O)[C@H](CC(C)C)NC(=O)[C@@H]1CCCN1C(=O)CNc1ccc([N+](=O)[O-])cc1[N+](=O)[O-])C(N)=O) [Dnp-GPLGLHGC(Me)-NH2]	5

--- query ---
Task: Indicate the recorded Selectivity v. Coll-3 value for this binder: Dnp-GPLQFRG-NH2 (SMILES CC(C)C[C@H](NC(=O)[C@@H]1CCCN1C(=O)CNc1ccc([N+](=O)[O-])cc1[N+](=O)[O-])C(=O)N[C@@H](CCC(N)=O)C(=O)N[C@@H](Cc1ccccc1)C(=O)N[C@@H](CCCNC(=N)N)C(=O)NCC(N)=O) [Dnp-GPLQFRG-NH2]
Result: 7
